Tested on: wheat (winter wheat)
Test: Test C pre-/postemergence herbicide test
Format: in vivo, Triticum aestivum
Settings: Postemergence; 250 g ai/ha; scale 0 to 100 (0 no effect, 100 complete control)
Measurement name: Plant response rating, Wheat

- O=C1NCC(c2cccc(OC(F)F)c2)C1C(=O)Nc1ccccc1F (centres unmarked): 0
- O=C1NCC(c2cccc(Br)c2)C1C(=O)Nc1ccc(F)c(F)c1F (centres unmarked): 0
- Cc1c(F)cccc1NC(=O)C1C(=O)NCC1c1ccc(F)c(F)c1 (racemic): 0
- O=C1NC[C@H](c2cccc(C(F)(F)F)c2)[C@H]1C(=O)Nc1ccccc1F: 0
- O=C1NC[C@H](c2cccc(C(F)(F)F)c2)[C@H]1C(=O)Nc1cccc(F)c1F: 45
